- method: Cytotoxicity, MTT assay, MDA-MB231
- Assay type: cell-based, human
- experimental.context: human, MDA-MB231 cells (human breast cancer cell line); MTT assay; read-out: MDA-MB231 Cytotox (IC50)
property.measured: IC50

-- ask Fill in reported IC50 for this entry: CC(=O)N[C@H]1CSSC[C@@H](C(N)=O)NC(=O)[C@H](C(C)C)NC(=O)CNC(=O)[C@H](Cc2c[nH]cn2)NC1=O [N—Ac—CHGVC—NH2, reference compound]
-- reply > 100 µM

----------
- assay.system: N-cadherin (Gallus gallus)
- Construct: expressed in transfected cells; host or cells: 3T3 fibroblasts (monolayer)
- Sequence (P10288 165-912): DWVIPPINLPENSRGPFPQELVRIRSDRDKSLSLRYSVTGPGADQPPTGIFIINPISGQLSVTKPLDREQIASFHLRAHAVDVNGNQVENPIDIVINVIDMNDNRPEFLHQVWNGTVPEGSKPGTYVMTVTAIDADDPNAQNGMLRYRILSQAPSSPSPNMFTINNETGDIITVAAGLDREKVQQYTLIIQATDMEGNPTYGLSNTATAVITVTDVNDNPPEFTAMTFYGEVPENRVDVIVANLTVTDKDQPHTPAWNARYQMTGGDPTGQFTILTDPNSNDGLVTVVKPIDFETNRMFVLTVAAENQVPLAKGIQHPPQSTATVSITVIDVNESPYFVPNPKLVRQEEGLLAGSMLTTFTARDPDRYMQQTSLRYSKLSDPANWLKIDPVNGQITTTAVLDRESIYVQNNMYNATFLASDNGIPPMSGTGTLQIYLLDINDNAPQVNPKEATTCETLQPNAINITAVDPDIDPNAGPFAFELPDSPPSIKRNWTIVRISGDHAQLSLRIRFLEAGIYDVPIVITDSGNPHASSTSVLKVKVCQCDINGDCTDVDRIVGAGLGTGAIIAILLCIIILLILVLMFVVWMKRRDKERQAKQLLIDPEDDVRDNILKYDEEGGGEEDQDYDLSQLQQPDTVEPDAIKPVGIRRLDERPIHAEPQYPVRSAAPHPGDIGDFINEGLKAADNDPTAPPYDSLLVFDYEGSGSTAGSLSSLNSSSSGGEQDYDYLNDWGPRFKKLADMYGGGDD
- method: Neurite outgrowth inhibition, rat neurons (Example 21)
- Assay type: cell-based
- experimental.context: read-out: % Inhibition of neurite outgrowth; 250 μg/mL
Positions of bridges follow the written chain, without caps; N, C: chain ends. Residues, ends and D or L forms follow the SMILES beside them.
Field: inhibition at 250 µg/mL. Provide a value for each of the compounds that follow.
Give bare numbers, in %.

The cases that follow already have their inhibition at 250 µg/mL on record.
CC[C@H](C)[C@@H]1NC(=O)[C@H](CC(=O)O)NC(=O)[C@H](C(C)C)NC(=O)[C@H](C)NC(=O)[C@H](Cc2c[nH]cn2)NC(=O)[C@H](C)NC(=O)[C@@H](NC(C)=O)CSSC[C@@H](C(N)=O)NC1=O (Ac-CAHAVDIC-NH2; disulfide 1-8)	82
CC(=O)N[C@H]1CSSC[C@@H](C(N)=O)NC(=O)[C@H](C(C)C)NC(=O)CNC(=O)[C@H](Cc2c[nH]cn2)NC(=O)[C@H](CO)NC1=O [N—Ac—CSHGVC—NH2] (Ac-CSHGVC-NH2; disulfide 1-6)	0
CC(C)[C@@H]1NC(=O)[C@H](C)NC(=O)[C@H](Cc2c[nH]cn2)NC(=O)[C@H](C)NC(=O)[C@@H](N)CSSC[C@@H](C(N)=O)NC(=O)[C@H](CC(=O)O)NC1=O [H—CAHAVDC—NH2, H-Cys-Ala-His-Ala-Val-Asp-Cys-NH2] (H-CAHAVDC-NH2; disulfide 1-7)	0

Record inhibition at 250 µg/mL for all entries; do not skip any.
1. CC[C@H](C)[C@@H]1NC(=O)[C@H](CC(=O)O)NC(=O)[C@H](C(C)C)NC(=O)CNC(=O)[C@H](Cc2c[nH]cn2)NC(=O)[C@H](C)NC(=O)[C@@H](NC(C)=O)CSSC[C@@H](C(N)=O)NC1=O (Ac-CAHGVDIC-NH2; disulfide 1-8)
2. CC(=O)N[C@H]1CSSC[C@@H](C(N)=O)NC(=O)[C@H](C(C)C)NC(=O)CNC(=O)[C@H](Cc2c[nH]cn2)NC1=O [N—Ac—CHGVC—NH2, reference compound]
3. CC(=O)N[C@H]1CSSC[C@@H](C(N)=O)NC(=O)[C@H](CC(=O)O)NC(=O)[C@H](C(C)C)NC(=O)[C@H](C)NC(=O)[C@H](Cc2c[nH]cn2)NC1=O [N—Ac—CHAVDC—NH2] (Ac-CHAVDC-NH2; disulfide 1-6)
4. CC(C)[C@@H]1NC(=O)CNC(=O)[C@H](Cc2c[nH]cn2)NC(=O)[C@H](C)NC(=O)[C@@H](N)CSSC[C@@H](C(N)=O)NC(=O)[C@H](CC(=O)O)NC1=O [H—CAHGVDC—NH2] (H-CAHGVDC-NH2; disulfide 1-7)
5. CC(=O)N[C@H]1CSSC[C@@H](C(N)=O)NC(=O)[C@H](CO)NC(=O)[C@H](C(C)C)NC(=O)CNC(=O)[C@H](Cc2c[nH]cn2)NC1=O [N—Ac—CHGVSC—NH2] (Ac-CHGVSC-NH2; disulfide 1-6)
6. CC(=O)N[C@H]1CSSC[C@@H](C(N)=O)NC(=O)[C@H](CO)NC(=O)[C@H](C(C)C)NC(=O)[C@H](C)NC(=O)[C@H](Cc2c[nH]cn2)NC1=O [N—Ac—CHAVSC—NH2, N-Ac-Cys-His-Ala-Val-Ser-Cys-NH2] (Ac-CHAVSC-NH2; disulfide 1-6 (inferred))
7. CC(=O)N[C@H]1CSSC[C@@H](C(N)=O)NC(=O)[C@H](C(C)C)NC(=O)[C@H](C)NC(=O)[C@H](Cc2c[nH]cn2)NC(=O)[C@H](CO)NC1=O [N—Ac—CSHAVC—NH2, N-Ac-Cys-Ser-His-Ala-Val-Cys-NH2] (Ac-CSHAVC-NH2; disulfide 1-6)

-- reply
1: 0; 2: 0; 3: 88; 4: 0; 5: 0; 6: 0; 7: 0

Record inhibition at 250 µg/mL for all entries; do not skip any.
1. CC[C@H](C)[C@@H]1NC(=O)[C@H](CC(=O)O)NC(=O)[C@H](C(C)C)NC(=O)[C@H](C)NC(=O)[C@H](Cc2c[nH]cn2)NC(=O)[C@H](C)NC(=O)[C@@H](N)CSSC[C@@H](C(N)=O)NC1=O (H-CAHAVDIC-NH2; disulfide 1-8)
2. CC(=O)N[C@H]1CSSC[C@@H](C(N)=O)NC(=O)[C@H](CO)NC(=O)[C@H](CO)NC(=O)[C@H](C(C)C)NC(=O)[C@H](C)NC(=O)[C@H](Cc2c[nH]cn2)NC(=O)[C@H](CO)NC1=O (Ac-CSHAVSSC-NH2; disulfide 1-8 (inferred))
3. CC[C@H](C)[C@@H]1NC(=O)[C@H](CC(=O)O)NC(=O)[C@H](C(C)C)NC(=O)CNC(=O)[C@H](Cc2c[nH]cn2)NC(=O)[C@H](C)NC(=O)[C@@H](N)CSSC[C@@H](C(N)=O)NC1=O (H-CAHGVDIC-NH2; disulfide 1-8)
4. CC(=O)N[C@H]1CSSC[C@@H](C(N)=O)NC(=O)[C@H](CO)NC(=O)[C@H](CO)NC(=O)[C@H](C(C)C)NC(=O)CNC(=O)[C@H](Cc2c[nH]cn2)NC(=O)[C@H](CO)NC1=O (Ac-CSHGVSSC-NH2; disulfide 1-8)
5. CC(=O)N[C@H]1CSSC[C@@H](C(N)=O)NC(=O)[C@H](C(C)C)NC(=O)[C@H](C)NC(=O)[C@H](Cc2c[nH]cn2)NC1=O [N—Ac—CHAVC—NH2, N-Ac-Cys-His-Ala-Val-Cys-NH2]

-- reply
1: 0; 2: 0; 3: 0; 4: 0; 5: 65
